Measured values drawn from patent US11312713B2 for this set.

# tested.target: LRRK2, WT (GST-tagged truncated LRRK2) (Homo sapiens, UniProt Q5S007)
# assay.notes: LRRK2 kinase assay (LanthaScreen), wild type
# Assay type: biochemical
# run.parameters: wild type LRRK2; LanthaScreen, LRRKtide substrate
pIC50: −log10 of the molar value.
experimental.endpoint: pIC50

molecule: Cc1cc(Cc2nc3cnc4ccc(C#N)cc4c3n2[C@@H]2CCN(C)C2)on1
pIC50: 8.12

molecule: C[C@@H]1C[C@H](n2c(Cc3nccs3)nc3cnc4ccc(C#N)cc4c32)CCO1
pIC50: 8.24

molecule: Cc1nn2cc(Cc3nc4cnc5ccc(F)cc5c4n3[C@@H]3CCO[C@H](C)C3)nc2s1
pIC50: 8.14

P = COc1cnn(Cc2nc3cnc4ccc(C(F)(F)F)cc4c3n2[C@@H]2CCO[C@H](C)C2)c1
Q = Cc1cnn(Cc2nc3cnc4ccc(Cl)cc4c3n2C2CN(C)CC2(F)F)n1 (centres unmarked)
Problem: Given P and given Q , which shows the smaller recorded pIC50? Respond with the label that goes with your answer.
Result: P
(P: 7.95, Q: 8.15)

P = Cc1cn(Cc2nc3cnc4ccc(C(F)F)cc4c3n2[C@@H]2CCO[C@H](C)C2)nn1
Q = CN1CC(n2c(Cn3cc(C4CC4)nn3)nc3cnc4ccc(Cl)cc4c32)C(F)(F)C1 (centres unmarked)
Problem: Hi, I'm comparing two records. Which one has the lower pIC50, P or Q ? Lab note: record the label of whichever item you select.
Result: P

I = Cc1cc(Cc2nc3cnc4ccc(Cl)cc4c3n2C2CN(C)CC2(F)F)no1 (centres unmarked) [Example 52]
II = COc1cnn(Cc2nc3cnc4ccc(C#N)cc4c3n2[C@@H]2CCO[C@H](C)C2)c1
Problem: Just tell me: smaller pIC50 value, I or II ? Kindly state the label of the option you pick.
Result: I
(I: 7.82, II: 8.13)

1 = CCc1nc2cnc3ccc(Cl)cc3c2n1[C@@H]1CCO[C@H](CC#N)C1
2 = N#CCC1CC(n2c(C3CCC3)nc3cnc4ccc(Cl)cc4c32)CCO1 (single isomer, unassigned) [Example 11]
Problem: Which record shows the lower pIC50: the first, 1 , or the second, 2 ? Please reply using the label of the selected record.
Result: 2
(2: 7.74, 1: 7.99)

---

# tested.target: LRRK2, WT (GST-tagged truncated LRRK2) (Homo sapiens)
# assay.notes: LRRK2 kinase assay (LanthaScreen), wild type
# Format: biochemical
# run.parameters: wild type LRRK2; LanthaScreen, LRRKtide substrate
pIC50: −log10 of the molar value.
experimental.endpoint: pIC50

Worked cases, pIC50 given:
compound: COc1cnn(Cc2nc3cnc4ccc(Cl)cc4c3n2CC(C)(F)F)c1
experimental.endpoint: pIC50
value.observed: 7.92
//
compound: FC1(F)COCCC1n1c(Cn2cncn2)nc2cnc3ccc(Cl)cc3c21 (centres unmarked) [Example 54]
experimental.endpoint: pIC50
value.observed: 7.99
//
compound: Fc1ccc2ncc3nc(Cc4csnn4)n(C4CCC(F)C4)c3c2c1 (centres unmarked)
experimental.endpoint: pIC50
value.observed: 8.01
//
compound: CN1CC(n2c(Cc3ncn(C)n3)nc3cnc4ccc(Cl)cc4c32)C(F)(F)C1 (centres unmarked)
experimental.endpoint: pIC50
value.observed: 7.99
//
compound: Cc1nnc(Cc2nc3cnc4ccc(Cl)cc4c3n2C2CN(C)CC2(F)F)s1 (centres unmarked)
experimental.endpoint: pIC50
value.observed: 7.86

A = Cc1nnc(Cc2nc3cnc4ccc(C(F)(F)F)cc4c3n2[C@@H]2CCO[C@H](C)C2)o1
B = Cc1nc(Cc2nc3cnc4ccc(C#N)cc4c3n2C2CN(C)CC2(F)F)no1 (centres unmarked)
Problem: // pick larger pIC50 from pair: A vs B Record your answer as the label of the chosen record.
Result: B
(B: 8.34, A: 7.86)

---

Each entry below carries its reported half-life at 1 μM.
# assay.notes: Intrinsic clearance (CLint) in human liver microsomes
# Assay type: in vitro ADME
# run.parameters: human, liver microsomes, pH 7.4, human liver microsomes, individual substrates, 1 μM; read-out: T½
Your answer should be a plain number; it is taken to be in h.

compound: [2H]C([2H])([2H])c1cnc(Cc2nc3cnc4ccc(Cl)cc4c3n2[C@@H]2CCO[C@H](C)C2)cn1
unit.annotation: h
half-life at 1 μM: 1.51

Cc1cnc(Cc2nc3cnc4ccc(Cl)cc4c3n2[C@@H]2CCO[C@H](C)C2)cn1 [Example 95A] has a reported half-life at 1 μM of 0.907

---

# tested.target: LRRK2, WT (GST-tagged truncated LRRK2) (Homo sapiens)
# assay.notes: LRRK2 kinase assay (LanthaScreen), wild type
# Format: biochemical
# run.parameters: LanthaScreen, LRRKtide substrate, 1 mM ATP
# Description: LRRK2 kinase activity was measured using Lantha Screen technology from Invitrogen. GST-tagged truncated LRRK2 from Invitrogen (Cat #PV4874) was incubated with a fluorescein-labeled peptide substrate based upon ezrin/radixin/moesin (ERM), also known as LRRKtide (Invitrogen cat #PR8976A), in the presence of a dose response of compound. Upon completion, the assay was stopped and detected with a terbium labeled anti-phospho-ERM antibody (Invitrogen, cat #PR8975A). […]
pIC50: −log10 of the molar value.
experimental.endpoint: pIC50

Please review the entries below; each comes with its answer.
compound: COCc1cn(Cc2nc3cnc4ccc(Cl)cc4c3n2C2CCOCC2(F)F)nn1 (stereo not drawn) [enantiomer of Example 55]
value.observed: 7.82

compound: Cc1nc(Cc2nc3cnc4ccc(Cl)cc4c3n2C2CN(C)CC2(F)F)no1 (stereo not drawn) [enantiomer of Example 88]
value.observed: 6.58

A = COCc1cn(Cc2nc3cnc4ccc(F)cc4c3n2C2CN(C)CC2(F)F)nn1 (stereo not drawn) [enantiomer of Example 53]
B = FC1(F)COCCC1n1c(Cn2cncn2)nc2cnc3ccc(Cl)cc3c21 (centres unmarked) [Example 93]
C = CN1CC(n2c(Cn3cc(C4CC4)nn3)nc3cnc4ccc(Cl)cc4c32)C(F)(F)C1 (stereo not drawn) [enantiomer of Example 47]
Problem: Let's sort these by pIC50, smallest first. Go ahead? Put the labels in the requested order and write them down.
Result: A, C, B
(A: 6.64, C: 7.01, B: 7.96)

---

# tested.target: LRRK2, WT (GST-tagged truncated LRRK2) (Homo sapiens)
# assay.notes: LRRK2 kinase assay (LanthaScreen), wild type
# Type: biochemical
# run.parameters: LanthaScreen, LRRKtide substrate, 1 mM ATP
pIC50: −log10 of the molar value.
experimental.endpoint: pIC50

I = Cc1cnc(Cc2nc3cnc4ccc(Cl)cc4c3n2C2CN(C)CC2(F)F)cn1 (stereo not drawn) [enantiomer of Example 50]
II = Cc1nc2cnc3ccc(Cl)cc3c2n1[C@H]1CCO[C@@H](CC#N)C1 (relative stereo) [enantiomer of Example 31]
Problem: In the pair I and II , the larger recorded pIC50 belongs to which? Bench note: the answer is the label of the chosen record.
Result: I

a = Cc1cnn(Cc2nc3cnc4ccc(Cl)cc4c3n2C2CN(C)CC2(F)F)n1 (stereo not drawn) [enantiomer of Example 87]
b = FC1(F)COCCC1n1c(Cn2cc(C3CC3)nn2)nc2cnc3ccc(Cl)cc3c21 (stereo not drawn) [enantiomer of Example 94]
c = CN1CC(n2c(Cn3cnnn3)nc3cnc4ccc(Cl)cc4c32)C(F)(F)C1 (stereo not drawn) [enantiomer of Example 86]
Problem: Your job: order these 3 records by pIC50, ascending. Write the labels out in the order the request specifies.
Result: c, a, b
(c: 6.57, a: 7.42, b: 8.03)

---

# tested.target: LRRK2, WT (GST-tagged truncated LRRK2) (Homo sapiens, UniProt Q5S007)
# assay.notes: LRRK2 kinase assay (LanthaScreen), wild type
# Format: biochemical
experimental.endpoint: IC50 (nM)
Provide only the numeric value, understood in nM.

Note to self: IC50 recorded for Cc1cnc(C(O)c2nc3cnc4ccc(Cl)cc4c3n2[C@@H]2CCO[C@H](C)C2)cn1 (single isomer, unassigned) [Example 14] was 14.2

---

# tested.target: mutant G2019S LRRK2 (Homo sapiens (Human), UniProt Q5S007, G2019S)
# Sequence (Q5S007 whole entry G2019S): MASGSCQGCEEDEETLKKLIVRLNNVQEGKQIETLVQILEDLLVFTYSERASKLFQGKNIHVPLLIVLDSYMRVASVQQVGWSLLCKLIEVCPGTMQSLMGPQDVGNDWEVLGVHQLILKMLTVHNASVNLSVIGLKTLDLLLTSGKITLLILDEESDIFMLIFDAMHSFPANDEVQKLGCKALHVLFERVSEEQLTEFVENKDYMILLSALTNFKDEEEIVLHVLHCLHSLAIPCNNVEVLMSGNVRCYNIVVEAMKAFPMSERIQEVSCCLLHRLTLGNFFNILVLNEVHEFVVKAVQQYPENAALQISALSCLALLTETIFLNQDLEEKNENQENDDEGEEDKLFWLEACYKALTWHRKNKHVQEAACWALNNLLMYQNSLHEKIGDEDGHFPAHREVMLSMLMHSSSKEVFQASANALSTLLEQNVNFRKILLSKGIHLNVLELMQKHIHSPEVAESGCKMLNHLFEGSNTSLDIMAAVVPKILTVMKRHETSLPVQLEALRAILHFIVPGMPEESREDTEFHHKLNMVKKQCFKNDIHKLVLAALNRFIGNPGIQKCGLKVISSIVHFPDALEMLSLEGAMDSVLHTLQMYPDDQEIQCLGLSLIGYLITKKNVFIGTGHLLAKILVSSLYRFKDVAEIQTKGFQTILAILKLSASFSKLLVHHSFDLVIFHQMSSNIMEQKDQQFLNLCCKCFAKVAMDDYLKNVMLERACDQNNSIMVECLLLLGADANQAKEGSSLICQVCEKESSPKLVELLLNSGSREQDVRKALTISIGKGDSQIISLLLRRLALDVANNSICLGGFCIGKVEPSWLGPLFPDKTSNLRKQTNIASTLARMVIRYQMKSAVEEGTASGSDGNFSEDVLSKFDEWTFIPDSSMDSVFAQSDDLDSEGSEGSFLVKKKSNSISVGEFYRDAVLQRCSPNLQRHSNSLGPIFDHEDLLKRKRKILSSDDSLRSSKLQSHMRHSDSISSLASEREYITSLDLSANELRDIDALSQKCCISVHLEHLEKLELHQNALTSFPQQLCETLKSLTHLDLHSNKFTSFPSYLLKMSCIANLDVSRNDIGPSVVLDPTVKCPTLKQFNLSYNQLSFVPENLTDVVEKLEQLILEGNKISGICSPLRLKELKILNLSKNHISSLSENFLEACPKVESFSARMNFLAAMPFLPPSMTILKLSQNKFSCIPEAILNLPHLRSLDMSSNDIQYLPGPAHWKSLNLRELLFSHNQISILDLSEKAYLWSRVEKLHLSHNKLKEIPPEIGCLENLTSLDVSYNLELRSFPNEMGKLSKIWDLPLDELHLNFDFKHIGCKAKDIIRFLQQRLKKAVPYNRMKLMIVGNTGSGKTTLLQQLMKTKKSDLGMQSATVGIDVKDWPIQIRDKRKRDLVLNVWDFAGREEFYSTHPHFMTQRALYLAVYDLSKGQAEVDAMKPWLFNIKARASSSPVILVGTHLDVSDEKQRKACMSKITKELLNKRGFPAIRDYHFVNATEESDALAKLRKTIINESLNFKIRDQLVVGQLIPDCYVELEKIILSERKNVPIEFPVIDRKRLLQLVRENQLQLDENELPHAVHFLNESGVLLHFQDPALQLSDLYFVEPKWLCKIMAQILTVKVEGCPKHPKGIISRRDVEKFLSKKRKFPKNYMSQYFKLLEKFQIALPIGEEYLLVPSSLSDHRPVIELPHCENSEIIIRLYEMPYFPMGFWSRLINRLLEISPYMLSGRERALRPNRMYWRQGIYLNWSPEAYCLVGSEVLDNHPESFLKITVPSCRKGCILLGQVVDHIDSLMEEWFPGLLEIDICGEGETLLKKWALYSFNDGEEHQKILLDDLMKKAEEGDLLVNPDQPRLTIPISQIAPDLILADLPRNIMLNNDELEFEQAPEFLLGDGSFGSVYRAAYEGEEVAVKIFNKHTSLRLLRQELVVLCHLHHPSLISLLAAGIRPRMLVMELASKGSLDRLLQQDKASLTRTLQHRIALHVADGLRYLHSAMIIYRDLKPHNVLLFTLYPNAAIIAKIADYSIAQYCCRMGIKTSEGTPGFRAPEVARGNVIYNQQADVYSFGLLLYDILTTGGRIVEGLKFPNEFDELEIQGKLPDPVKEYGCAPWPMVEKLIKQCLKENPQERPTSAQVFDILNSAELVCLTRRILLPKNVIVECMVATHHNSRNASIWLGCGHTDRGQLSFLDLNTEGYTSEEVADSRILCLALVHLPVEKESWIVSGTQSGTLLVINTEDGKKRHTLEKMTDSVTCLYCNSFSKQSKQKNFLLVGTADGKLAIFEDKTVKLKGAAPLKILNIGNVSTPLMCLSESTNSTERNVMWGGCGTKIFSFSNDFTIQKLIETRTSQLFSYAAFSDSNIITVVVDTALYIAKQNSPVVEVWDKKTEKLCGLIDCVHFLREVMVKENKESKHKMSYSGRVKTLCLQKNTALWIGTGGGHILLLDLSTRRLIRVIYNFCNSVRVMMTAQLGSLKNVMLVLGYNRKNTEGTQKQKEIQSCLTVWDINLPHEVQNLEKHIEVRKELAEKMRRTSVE
# assay.notes: LRRK2 kinase assay (LanthaScreen), G2019S mutant
# Format: biochemical
# run.parameters: G2019S mutant LRRK2; LanthaScreen, LRRKtide substrate; read-out: LRRK2, G2019S IC50
experimental.endpoint: IC50 (nM)

molecule: C[C@@H]1C[C@H](n2c(Cc3csnn3)nc3cnc4ccc(C(F)(F)F)cc4c32)CCO1 [Example 63]
unit.annotation: nM
IC50: 3.04
--
molecule: Cc1cn(Cc2nc3cnc4ccc(Cl)cc4c3n2[C@@H]2CCN(C)C2)nn1 [Example 62]
unit.annotation: nM
IC50: 6.5
--
molecule: COc1cnn(Cc2nc3cnc4ccc(C(F)(F)F)cc4c3n2[C@@H]2CCO[C@H](C)C2)c1 [Example 41]
unit.annotation: nM
IC50: 3.87
--
molecule: Cc1nnn(Cc2nc3cnc4ccc(Cl)cc4c3n2C2CN(C)CC2(F)F)n1 (stereo not drawn) [Example 49]
unit.annotation: nM
IC50: 1.34
--
molecule: Cc1nc(Cc2nc3cnc4ccc(Cl)cc4c3n2[C@@H]2CCN(C)C2)no1 [Example 42]
unit.annotation: nM
IC50: 26

I = COc1cnn(Cc2nc3cnc4ccc(C#N)cc4c3n2[C@@H]2CCO[C@H](C)C2)c1 [Example 57]
II = Cc1cc(Cc2nc3cnc4ccc(Cl)cc4c3n2[C@@H]2CCN(C)C2)ncn1 [Example 40]
Problem: Given the entries I and II , determine which has the lower reported IC50. # answer = label of selected item
Result: I

a = C[C@@H]1C[C@H](n2c(Cc3cscn3)nc3cnc4ccc(C(F)(F)F)cc4c32)CCO1 [Example 69]
b = Cc1cc(Cc2nc3cnc4ccc(C(F)(F)F)cc4c3n2[C@@H]2CCO[C@H](C)C2)ncn1 [Example 76]
c = C[C@@H]1C[C@H](n2c(C3CCCC3)nc3cnc4ccc(C#N)cc4c32)CCO1 [Example 30]
d = Cc1cc(Cc2nc3cnc4ccc(C(F)F)cc4c3n2[C@@H]2CCO[C@H](C)C2)no1 [Example 91]
e = N#CCC1CC(n2c(C3CCC3)nc3cnc4ccc(Cl)cc4c32)CCO1 (single isomer, unassigned) [Example 11]
Problem: Arrange these molecules by their IC50, starting with the largest number. Your task in answering is to list the labels in the requested order.
Result: c, b, d, e, a

P = Cc1cnc(Cc2nc3cnc4ccc(Cl)cc4c3n2[C@@H]2CCN(C)C2)cn1 [Example 67]
Q = Cc1cnn(Cc2nc3cnc4ccc(Cl)cc4c3n2C2CN(C)CC2(F)F)n1 (stereo not drawn) [Example 87]
Problem: Of P versus Q , which is the one with smaller reported IC50? Indicate your choice by writing its label.
Result: Q
